# credit: ChEMBL document CHEMBL3397011

targetOrSystem: UniProtKB P10635
Sequence (P10635 whole entry): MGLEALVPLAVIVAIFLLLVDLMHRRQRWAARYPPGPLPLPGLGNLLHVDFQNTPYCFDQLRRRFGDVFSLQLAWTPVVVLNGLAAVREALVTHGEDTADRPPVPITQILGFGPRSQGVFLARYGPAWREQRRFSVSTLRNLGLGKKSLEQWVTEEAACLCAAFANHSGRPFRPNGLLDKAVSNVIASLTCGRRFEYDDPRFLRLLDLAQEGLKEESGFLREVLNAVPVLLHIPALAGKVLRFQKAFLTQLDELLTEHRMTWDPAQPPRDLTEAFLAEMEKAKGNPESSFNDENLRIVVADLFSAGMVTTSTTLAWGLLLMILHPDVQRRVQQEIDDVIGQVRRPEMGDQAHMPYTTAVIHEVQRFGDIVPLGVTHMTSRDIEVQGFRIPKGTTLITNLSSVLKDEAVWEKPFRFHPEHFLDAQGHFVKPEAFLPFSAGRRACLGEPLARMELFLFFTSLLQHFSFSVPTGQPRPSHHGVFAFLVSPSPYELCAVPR

[
  {
    "smilesCode": "O=C(/C=C(\\O)C(=O)N1CCN(c2ccc(-n3cccc3)cc2)CC1)c1cc(Cc2cc(F)cc(F)c2)cn(Cc2ccccc2F)c1=O",
    "IC50": "> 185 µM"
  }
]

====

targetOrSystem: UDP-glucuronosyltransferase 1A1 (Homo sapiens)
Sequence (P22309 whole entry): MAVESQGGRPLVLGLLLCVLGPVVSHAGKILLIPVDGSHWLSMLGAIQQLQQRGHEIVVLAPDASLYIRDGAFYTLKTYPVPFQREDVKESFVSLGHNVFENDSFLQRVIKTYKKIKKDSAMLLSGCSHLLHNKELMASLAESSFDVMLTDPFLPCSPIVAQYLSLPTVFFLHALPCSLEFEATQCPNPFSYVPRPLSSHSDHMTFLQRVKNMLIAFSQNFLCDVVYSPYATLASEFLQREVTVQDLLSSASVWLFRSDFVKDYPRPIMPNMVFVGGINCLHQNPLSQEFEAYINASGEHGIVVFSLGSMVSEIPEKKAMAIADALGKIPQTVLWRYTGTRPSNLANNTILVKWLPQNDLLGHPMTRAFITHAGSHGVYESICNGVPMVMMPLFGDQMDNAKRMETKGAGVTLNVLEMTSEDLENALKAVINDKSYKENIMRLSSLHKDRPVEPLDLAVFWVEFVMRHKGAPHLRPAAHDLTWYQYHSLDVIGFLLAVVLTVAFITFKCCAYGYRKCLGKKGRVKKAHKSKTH
outcomeMeasure: IC50

[
  {
    "smilesCode": "O=C(/C=C(\\O)C(=O)N1CCN(c2ccc(-n3cccc3)cc2)CC1)c1cc(Cc2cc(F)cc(F)c2)cn(Cc2ccccc2F)c1=O",
    "outcomeMeasure": "IC50",
    "result": "> 300 µM"
  }
]

====

assayInfo: Dissociation constant, pKa of the compound
Assay type: physicochemical

[
  {
    "smilesCode": "O=C(/C=C(\\O)C(=O)N1CCN(c2ccc(-n3cccc3)cc2)CC1)c1cc(Cc2cc(F)cc(F)c2)cn(Cc2ccccc2F)c1=O",
    "pKa": 9
  }
]

====

targetOrSystem: UDP-glucuronosyltransferase 1A9 (Homo sapiens, UniProt O60656)
Sequence (O60656 whole entry): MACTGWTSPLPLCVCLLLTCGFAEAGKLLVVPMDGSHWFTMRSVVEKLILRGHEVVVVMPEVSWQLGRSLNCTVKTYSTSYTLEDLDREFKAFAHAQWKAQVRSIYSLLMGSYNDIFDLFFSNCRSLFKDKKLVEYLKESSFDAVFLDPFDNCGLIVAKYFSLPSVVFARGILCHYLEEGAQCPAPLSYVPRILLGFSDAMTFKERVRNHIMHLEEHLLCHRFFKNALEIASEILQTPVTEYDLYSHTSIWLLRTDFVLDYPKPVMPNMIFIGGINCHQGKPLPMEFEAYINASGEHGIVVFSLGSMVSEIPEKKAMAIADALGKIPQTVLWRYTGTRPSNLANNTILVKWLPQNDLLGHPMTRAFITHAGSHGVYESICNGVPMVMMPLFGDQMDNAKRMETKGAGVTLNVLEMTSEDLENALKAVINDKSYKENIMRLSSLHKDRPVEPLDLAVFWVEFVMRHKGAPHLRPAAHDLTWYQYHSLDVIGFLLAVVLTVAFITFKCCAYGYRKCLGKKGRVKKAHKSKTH

[
  {
    "smilesCode": "O=C(/C=C(\\O)C(=O)N1CCN(c2ccc(-n3cccc3)cc2)CC1)c1cc(Cc2cc(F)cc(F)c2)cn(Cc2ccccc2F)c1=O",
    "targetOrSystem": "UDP-glucuronosyltransferase 1A9 (Homo sapiens, UniProt O60656)",
    "IC50": "> 300 µM"
  }
]

====

targetOrSystem: UniProtKB P08684
Sequence (P08684 whole entry): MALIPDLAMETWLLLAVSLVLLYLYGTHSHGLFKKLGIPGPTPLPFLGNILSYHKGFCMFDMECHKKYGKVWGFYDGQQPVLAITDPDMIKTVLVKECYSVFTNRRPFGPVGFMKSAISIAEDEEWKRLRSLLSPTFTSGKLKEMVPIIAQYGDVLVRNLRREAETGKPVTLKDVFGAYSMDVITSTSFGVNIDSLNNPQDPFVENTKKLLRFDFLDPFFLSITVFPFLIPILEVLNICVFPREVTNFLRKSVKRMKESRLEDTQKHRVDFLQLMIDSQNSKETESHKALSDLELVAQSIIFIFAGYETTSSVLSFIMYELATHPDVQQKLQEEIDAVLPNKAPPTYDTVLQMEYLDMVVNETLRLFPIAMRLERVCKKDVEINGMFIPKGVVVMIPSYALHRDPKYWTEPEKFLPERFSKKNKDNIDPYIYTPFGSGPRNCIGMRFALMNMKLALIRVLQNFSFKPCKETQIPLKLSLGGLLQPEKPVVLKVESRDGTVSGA
assayInfo: Inhibition of CYP3A4 in pooled mixed-gender human liver microsomes using testosterone substrate in presence of NADPH pre-incubated for 3 mins by HPLC-UV detection method
Type: ADME
pIC50: −log10 of the molar value.

[
  {
    "smilesCode": "O=C(/C=C(\\O)C(=O)N1CCN(c2ccc(-n3cccc3)cc2)CC1)c1cc(Cc2cc(F)cc(F)c2)cn(Cc2ccccc2F)c1=O",
    "targetOrSystem": "UniProtKB P08684",
    "pIC50": "< 4.30"
  }
]
